Reference source: PubChem BioAssay AID1135

molecular target: Alkaline phosphatase, tissue-nonspecific isozyme (Homo sapiens); experiment: human TNAP enzyme inhibitors, primary screen, biochemical, luminescent, high phosphate acceptor level, uHTS (AID 1135); details: purified TNAP, CDP-star luminescence, 1 M DEA; at 20 µM; hits give high values;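 also: plate controls were DMSO wells for no effect and EDTA-quenched wells as full inhibition for full effect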
Screen size: about 200,000 compounds; about 65 (0.03%) were called active. The entries come from a sample that favours actives as a whole.

| molecule | target_desc | unit_descriptor | inhibition |
| --- | --- | --- | --- |
| CCOc1ccc(C(=O)NC(=S)Nc2ccc(N3CCOCC3)c(Cl)c2)cc1[N+](=O)[O-] | Alkaline phosphatase, tissue-nonspecific isozyme (Homo sapiens) | % | 1.7 |
| Cc1ccccc1Nc1nc(N)nc(CSc2nnc3ccccn23)n1 | Alkaline phosphatase, tissue-nonspecific isozyme (Homo sapiens) | % | -3.4 |
| CCCCn1c(N)c(N(CC)C(=O)/C=C/c2ccco2)c(=O)[nH]c1=O | Alkaline phosphatase, tissue-nonspecific isozyme (Homo sapiens) | % | 1.1 |
| COc1ccc(F)cc1C(=O)C1CCCN(C(=O)CCc2ccccn2)C1 (centres undefined) | Alkaline phosphatase, tissue-nonspecific isozyme (Homo sapiens) | % | 0.9 |
| COc1ccc(/C=C/C(=O)c2cc(Br)ccc(=O)c2O)cc1 | Alkaline phosphatase, tissue-nonspecific isozyme (Homo sapiens) | % | 12.7 |
| CCSc1ccccc1C(=O)Nc1ccc2c(c1)OCO2 | Alkaline phosphatase, tissue-nonspecific isozyme (Homo sapiens) | % | -5.5 |
| CC(=O)Nc1ccc(NC(=O)C(C)OC(=O)c2ccccc2C(=O)c2ccc(Cl)c([N+](=O)[O-])c2)cc1 (centres undefined) | Alkaline phosphatase, tissue-nonspecific isozyme (Homo sapiens) | % | 0.3 |
| COc1ccc(NC(=O)CN(Cc2ccccc2)S(C)(=O)=O)cc1OC | Alkaline phosphatase, tissue-nonspecific isozyme (Homo sapiens) | % | -3.6 |
| Cc1cc(=O)oc2c1c(C)nn2-c1ccc(Cl)cc1 | Alkaline phosphatase, tissue-nonspecific isozyme (Homo sapiens) | % | -6.1 |
| O=C(CCc1ccc(S(=O)(=O)N2CCOCC2)cc1)NN=C1CCCCCCC1 | Alkaline phosphatase, tissue-nonspecific isozyme (Homo sapiens) | % | -2 |
| O=C(COc1ccc(Cl)cc1)NCc1nnc(SCC(=O)NCC2CCCO2)o1 (centres undefined) | Alkaline phosphatase, tissue-nonspecific isozyme (Homo sapiens) | % | -2.4 |
| CN1CCN(C(=O)/C(=C\c2ccc3c(c2)OCO3)NC(=O)c2cccs2)CC1 | Alkaline phosphatase, tissue-nonspecific isozyme (Homo sapiens) | % | -3.5 |
| C[C@@H](O)c1nc2ccccc2n1N | Alkaline phosphatase, tissue-nonspecific isozyme (Homo sapiens) | % | -1.1 |
| Cc1nnc(SC(C(=O)Nc2cc(Cl)cc(Cl)c2)c2ccccc2)[nH]c1=O (centres undefined) | Alkaline phosphatase, tissue-nonspecific isozyme (Homo sapiens) | % | 2.4 |
| Cc1ccc(NC(=O)CSCC(=O)NC2CCCCC2)cc1 | Alkaline phosphatase, tissue-nonspecific isozyme (Homo sapiens) | % | -0.6 |
| Cc1[nH]c2ccccc2c1C(=O)COC(=O)c1c(-c2ccccc2)noc1C | Alkaline phosphatase, tissue-nonspecific isozyme (Homo sapiens) | % | -2.1 |
| O=C(O)c1ccccc1-c1ccccc1C(=O)NCc1cccnc1 | Alkaline phosphatase, tissue-nonspecific isozyme (Homo sapiens) | % | 3.5 |
| CN1CCN(C(=O)N2c3ccccc3CCc3ccccc32)CC1 | Alkaline phosphatase, tissue-nonspecific isozyme (Homo sapiens) | % | -5.7 |
| CC1=C[C@H]2Cc3cc(C)cc(C)c3S(=O)(=O)[C@@H]2C=C1 | Alkaline phosphatase, tissue-nonspecific isozyme (Homo sapiens) | % | 1.3 |
